Source listed as patent US9944666B2.

# target.system: Human ATX protein (Homo sapiens, UniProt Q13822)
pIC50: −log10 of the molar value.
reported.endpoint: pIC50

Example cases with answers are listed next.
• CC[C@H]1CC[C@@H](Oc2ccc3cc(C(C)N4C5CCC4CC(C(=O)O)C5)ccc3c2C#N)CC1 (stereo partly shown) [Example 212] = ≥ 7.00
• C[C@H]1CC[C@@H](Nc2ncc3cc(CN4C5CCCC4CC(C(=O)O)C5)ccc3c2Cl)CC1 (stereo partly shown) [Example 271] = ≥ 6.30
• C[C@H]1CC[C@@H](Oc2ccc3cc(C(=O)N4C5CCCC4CC(C(=O)O)C5)ccc3c2Cl)CC1 (stereo partly shown) [Example 208] = ≥ 6.60
• CC(C)(C)[C@H]1CC[C@H](Nc2cc3ccc(C(=O)N4C5CCC4CC(C(=O)O)C5)cc3cn2)CC1 (stereo partly shown) [Example 194] = ≥ 7.00
• CC(c1ccc2c(C(F)(F)F)c(O[C@H]3CC[C@@H](C(F)(F)F)CC3)ccc2c1)N1C2CCCC1CC(C(=O)O)C2 (stereo partly shown) [Example 88] = ≥ 7.00
• CC[C@H](c1ccc2c(C(F)(F)F)c(O[C@H]3CC[C@@H](C(F)(F)F)CC3)ccc2c1)N1C2CCCC1CC(C(=O)O)C2 (single isomer, unassigned) [Example 295] = ≥ 6.60
• O=C(O)C1CC2CCCC(C1)N2Cc1ccc2c(C(F)(F)F)c(O[C@H]3CC[C@@H](C(F)(F)F)CC3)ccc2n1 (stereo partly shown) [Example 101] = ≥ 7.00
• O=C(O)C1CC2CCCC(C1)N2Cc1cc2ccc(O[C@H]3CC[C@@H](C(F)(F)F)CC3)c(C(F)(F)F)c2cn1 (stereo partly shown) [Example 197] = ≥ 6.30
• CC[C@H]1CC[C@@H](Oc2ccc3cc(CN4C5CCC4CC(C(=O)O)C5)ccc3c2C#N)CC1 (stereo partly shown) [Example 200] = ≥ 6.30
• O=C(O)C1CC2CCC(C1)N2C(=O)Cc1ccc2c(C(F)(F)F)c(O[C@H]3CC[C@@H](C(F)(F)F)CC3)ccc2c1 (relative stereo) [Example 117] = ≥ 6.30

query: Requested field: pIC50. Item: CC1(C)C2CCC1(C(=O)O)C(NCc1ccc3c(C(F)(F)F)c(O[C@H]4CC[C@@H](C(F)(F)F)CC4)ccc3c1)C2 (relative stereo) [Example 123]
result: ≥ 6.30

query: Requested field: pIC50. Item: CC[C@@H](c1ccc2c(C(F)(F)F)c(O[C@H]3CC[C@@H](CC)CC3)ccc2c1)N1C2CCC1CC(C(=O)O)C2 (single isomer, unassigned) [Example 294]
result: ≥ 7.00

query: Requested field: pIC50. Item: O=C(O)C1CC2CC(O)CC(C1)N2Cc1ccc2c(C(F)(F)F)c(O[C@H]3CC[C@@H](C(F)(F)F)CC3)ccc2c1 (relative stereo) [Example 169]
result: ≥ 6.30

query: Requested field: pIC50. Item: CCC(c1ccc2c(C#N)c(O[C@H]3CC[C@@H](C)CC3)ccc2c1)N1C2CCC1CC(C(=O)O)C2 (stereo partly shown) [Example 226]
result: ≥ 7.00

query: Requested field: pIC50. Item: CCC(c1ccc2c(Cl)c(O[C@H]3CC[C@@H](C)CC3)ccc2c1)N1C2CCCC1CC(C(=O)O)C2 (stereo partly shown) [Example 211]
result: ≥ 7.00

query: Requested field: pIC50. Item: CC[C@H]1CC[C@@H](Oc2ccc3cc(C(=O)N4C5CCC4CC(C(=O)O)C5)ccc3c2C(F)(F)F)CC1 (stereo partly shown) [Example 222]
result: ≥ 7.00

###

List of pIC50 tested on Human ATX protein (Homo sapiens, UniProt Q13822).
pIC50: −log10 of the molar value.

Example cases with answers are listed next.
- CC(c1ccc2c(C(F)(F)F)c(O[C@H]3CC[C@@H](C)CC3)ccc2c1)N1C2CCC1CC(C(=O)O)C2 (relative stereo) [Example 124]: ≥ 7.00
- CC(c1ccc2c(Cl)c(O[C@H]3CC[C@@H](C(F)(F)F)CC3)ccc2c1)N1C2CCC1CC(C(=O)O)C2 (stereo partly shown) [Example 234]: ≥ 7.00
- CC(F)(F)[C@H]1CC[C@@H](Oc2ccc3cc(CN4C5CCCC4CC(C(=O)O)C5)ccc3c2C(F)(F)F)CC1 (stereo partly shown) [Example 209]: ≥ 7.00
- CC[C@@H](c1ccc2c(C(F)(F)F)c(O[C@H]3CC[C@@H](C(F)(F)F)CC3)ccc2c1)N1C2CCC1CC(C(=O)O)C2 (single isomer, unassigned) [Example 288]: ≥ 6.60

query: Requested field: pIC50. Item: CC(c1ccc2c(C(F)(F)F)c(O[C@H]3CC[C@@H](C(C)(F)F)CC3)ccc2c1)N1C2CCC1CC(C(=O)O)C2 (stereo partly shown) [Example 216]
result: ≥ 7.00

query: Requested field: pIC50. Item: CC[C@H]1CC[C@@H](Oc2ccc3cc(C(=O)N4C5CCC4CC(C(=O)O)C5)ccc3c2C#N)CC1 (stereo partly shown) [Example 223]
result: ≥ 7.00

query: Requested field: pIC50. Item: CC[C@H]1CC[C@@H](Oc2ccc3cc(C(C)N4C5CCCC4CC(C(=O)O)C5)ccc3c2C(F)(F)F)CC1 (relative stereo) [Example 175]
result: ≥ 7.00

query: Requested field: pIC50. Item: CC(c1ccc2c(C(F)(F)F)c(O[C@H]3CC[C@@H](C(C)(F)F)CC3)ccc2c1)N1C2CCCC1CC(C(=O)O)C2 (stereo partly shown) [Example 217]
result: ≥ 7.00

###

# target.system: Human ATX protein (Homo sapiens, UniProt Q13822)
// reported IC50 for each item listed

• C[C@H]1CC[C@H](Nc2cc3ccc(C(=O)N4C5CCC4CC(C(=O)O)C5)cc3cn2)CC1 (stereo partly drawn) = ≤ 500 nM
• C[C@H]1CC[C@@H](Oc2ccc3cc(CN4C5CCCC4CC(C(=O)O)C5)ccc3c2C#N)CC1 (stereo partly drawn) = ≤ 100 nM
• CCC(c1ccc2c(C(F)F)c(O[C@H]3CC[C@@H](C)CC3)ccc2c1)N1C2CCC1CC(C(=O)O)C2 (single isomer, unassigned; enantiomer 1) [Example 140] = ≤ 100 nM
• CC[C@H]1CC[C@@H](Oc2ccc3cc(CN4C5CCCC4CC(C(=O)O)C5)ccc3c2C(F)(F)F)CC1 (relative stereo) = ≤ 100 nM

query: Recall the recorded IC50 for CC[C@H](c1ccc2c(C(F)(F)F)c(O[C@H]3CC[C@@H](C(F)(F)F)CC3)ccc2c1)N1C2CCC1CC(C(=O)O)C2 (single isomer, unassigned) with Human ATX protein (Homo sapiens, UniProt Q13822) and state it.
result: ≤ 100 nM

query: Recall the recorded IC50 for C[C@H]1CC[C@@H](Oc2ccc3cc(CN4C5CCCC4CC(C(=O)O)C5)ccc3c2Cl)CC1 (relative stereo) with Human ATX protein (Homo sapiens, UniProt Q13822) and state it.
result: ≤ 250 nM

###

pIC50: −log10 of the molar value.
List of pIC50 tested on Human ATX protein (Homo sapiens).

Example cases with answers are listed next.
• CCC(c1ccc2c(Cl)c(O[C@H]3CC[C@@H](CC)CC3)ccc2c1)N1C2CCC1CC(C(=O)O)C2 (stereo partly drawn) = ≥ 7.00
• CC(c1ccc2c(C(F)F)c(O[C@H]3CC[C@@H](C)CC3)ccc2c1)N1C2CCC1CC(C(=O)O)C2 (relative stereo) [Example 133] = ≥ 7.00
• CC(c1ccc2c(C(F)F)c(O[C@H]3CC[C@@H](C)CC3)ccc2c1)N1C2CCC1CC(C(=O)O)C2 (single isomer, unassigned; enantiomer 1) [Example 136] = ≥ 7.00
• O=C(O)C1CC2CCCC(C1)N2Cc1ccc2c(C(F)(F)F)c(O[C@H]3CC[C@@H](C(F)(F)F)CC3)ccc2c1 (stereo partly drawn) = ≥ 7.00
• CC[C@H](c1ccc2c(C(F)(F)F)c(O[C@H]3CC[C@@H](CC)CC3)ccc2c1)N1C2CCC1CC(C(=O)O)C2 (single isomer, unassigned) = ≥ 6.30
• CC[C@H]1CC[C@@H](Oc2ccc3cc(CN4C5CCC4CC(C(=O)O)C5)ccc3c2C(F)(F)F)CC1 (relative stereo) = ≥ 6.60
• O=C(O)C1CC2CCC(C1)N2C(=O)c1ccc2c(C(F)(F)F)c(N[C@H]3CC[C@@H](C(F)(F)F)CC3)ccc2c1 (stereo partly drawn) = ≥ 7.00
• C[C@H]1CC[C@@H](Oc2ccc3cc(CN4C5CCC4CC(C(=O)O)C5)ccc3c2C(F)(F)F)CC1 (stereo partly drawn) = ≥ 6.30

query: Requested field: pIC50. Item: C[C@H](c1ccc2c(Cl)c(O[C@H]3CC[C@@H](C(F)(F)F)CC3)ccc2c1)N1C2CCC1CC(C(=O)O)C2 (single isomer, unassigned)
result: ≥ 7.00

###

List of IC50 tested on Human ATX protein (Homo sapiens, UniProt Q13822).

- CC[C@H]1CC[C@@H](Oc2ccc3cc([C@@H](C)N4C5CCCC4CC(C(=O)O)C5)ccc3c2C(F)(F)F)CC1 (single isomer, unassigned): ≤ 100 nM
- O=C(O)C1CC2CCCC(C1)N2Cc1cc2ccc(O[C@H]3CC[C@@H](C(F)(F)F)CC3)c(Br)c2cn1 (some centres unmarked): ≤ 250 nM
- C[C@H]1CC[C@H](Nc2cc3ccc(C(=O)N4C5CCCC4CC(C(=O)O)C5)cc3cn2)CC1 (some centres unmarked): ≤ 500 nM

query: Recall the recorded IC50 for C[C@H]1CC[C@@H](Oc2ccc3cc(C(=O)N4C5CCC4CC(C(=O)O)C5)ccc3c2C#N)CC1 (some centres unmarked) with Human ATX protein (Homo sapiens, UniProt Q13822) and state it.
result: ≤ 100 nM

query: Recall the recorded IC50 for CC[C@H]1CC[C@@H](Oc2ccc3cc(CN4C5CCCC4CC(C(=O)O)C5)ccc3c2)CC1 (some centres unmarked) with Human ATX protein (Homo sapiens, UniProt Q13822) and state it.
result: ≤ 500 nM

query: Recall the recorded IC50 for CC(c1ccc2c(Cl)c(O[C@H]3CC[C@@H](C)CC3)ccc2c1)N1C2CCCC1CC(C(=O)O)C2 (some centres unmarked) with Human ATX protein (Homo sapiens, UniProt Q13822) and state it.
result: ≤ 100 nM

query: Recall the recorded IC50 for CCC(c1ccc2c(C(F)F)c(O[C@H]3CC[C@@H](C)CC3)ccc2c1)N1C2CCC1CC(C(=O)O)C2 (some centres unmarked) [Example 99] with Human ATX protein (Homo sapiens, UniProt Q13822) and state it.
result: ≤ 100 nM

query: Recall the recorded IC50 for O=C(O)C1CC2CCC1N2Cc1ccc2c(C(F)(F)F)c(O[C@H]3CC[C@@H](C(F)(F)F)CC3)ccc2c1 (relative stereo) with Human ATX protein (Homo sapiens, UniProt Q13822) and state it.
result: ≤ 250 nM

query: Recall the recorded IC50 for CC(c1ccc2c(C(F)(F)F)c(O[C@H]3CC[C@@H](C)CC3)ccc2c1)N1C2CCCC1CC(C(=O)O)C2 (single isomer, unassigned; enantiomer 1) [Example 94] with Human ATX protein (Homo sapiens, UniProt Q13822) and state it.
result: ≤ 100 nM

query: Recall the recorded IC50 for CC[C@@H](c1ccc2c(Cl)c(O[C@H]3CC[C@@H](CC)CC3)ccc2c1)N1C2CCCC1CC(C(=O)O)C2 (single isomer, unassigned) with Human ATX protein (Homo sapiens, UniProt Q13822) and state it.
result: ≤ 100 nM

query: Recall the recorded IC50 for CC[C@H]1CC[C@@H](Oc2ccc3cc([C@@H](C)N4C5CCC4CC(C(=O)O)C5)ccc3c2C(F)(F)F)CC1 (single isomer, unassigned) with Human ATX protein (Homo sapiens, UniProt Q13822) and state it.
result: ≤ 100 nM

query: Recall the recorded IC50 for C[C@@H](c1ccc2c(C(F)(F)F)c(O[C@H]3CC[C@@H](C(F)(F)F)CC3)ccc2c1)N1C2CCCC1CC(C(=O)O)C2 (single isomer, unassigned) with Human ATX protein (Homo sapiens, UniProt Q13822) and state it.
result: ≤ 100 nM

query: Recall the recorded IC50 for CCC(c1ccc2c(Cl)c(O[C@H]3CC[C@@H](C)CC3)ccc2c1)N1C2CCC1CC(C(=O)O)C2 (some centres unmarked) with Human ATX protein (Homo sapiens, UniProt Q13822) and state it.
result: ≤ 100 nM

query: Recall the recorded IC50 for C[C@H]1CC[C@@H](Oc2ccc3cc(C(=O)N4C5CCCC4CC(C(=O)O)C5)ccc3c2C(F)(F)F)CC1 (relative stereo) with Human ATX protein (Homo sapiens, UniProt Q13822) and state it.
result: ≤ 250 nM

query: Recall the recorded IC50 for C[C@H]1CC[C@@H](Oc2ccc3cc(C(=O)N4C5CCC4CC(C(=O)O)C5)ccc3c2Cl)CC1 (some centres unmarked) with Human ATX protein (Homo sapiens, UniProt Q13822) and state it.
result: ≤ 250 nM

query: Recall the recorded IC50 for CC[C@@H](c1ccc2c(C(F)(F)F)c(O[C@H]3CC[C@@H](C)CC3)ccc2c1)N1C2CCC1CC(C(=O)O)C2 (single isomer, unassigned) with Human ATX protein (Homo sapiens, UniProt Q13822) and state it.
result: ≤ 100 nM

query: Recall the recorded IC50 for CC[C@H]1CC[C@@H](Oc2ccc3cc(C(C)N4C5CCCC4CC(C(=O)O)C5)ccc3c2Cl)CC1 (relative stereo) with Human ATX protein (Homo sapiens, UniProt Q13822) and state it.
result: ≤ 100 nM
